Record form. Attribute: log10 of IC50. Fill in for each entry.
Please keep in mind that the values are log10 of IC50 expressed in µM.

Entry `Cc1ccncc1C1=C(c2ccc(S(C)(=O)=O)cc2)CCC1=O` , tested on Prostaglandin G/H synthase 1 (Homo sapiens, UniProt P23219), has a reported log10 of IC50 of 0.74

Value (log10 of IC50, Prostaglandin G/H synthase 1 (Homo sapiens, UniProt P23219)) for record `CS(=O)(=O)c1ccc(C2=C(c3ccc(F)cc3)C(=O)CC2)cc1` = -0.30

# lookup: `CS(=O)(=O)c1ccc(C2=C(c3cc(Cl)c(Cl)c(Cl)c3)C(=O)CC2)cc1` on Prostaglandin G/H synthase 1 (Homo sapiens, UniProt P23219), log10 of IC50 = 0.40

Summary line: `CS(=O)(=O)c1ccc(C2=C(c3cccc(F)c3)C(=O)CC2)cc1` , Prostaglandin G/H synthase 1 (Homo sapiens, UniProt P23219), reported log10 of IC50 = 0.82

Prostaglandin G/H synthase 1 (Homo sapiens, UniProt P23219) assay, compound `COc1ccncc1C1=C(c2ccc(S(C)(=O)=O)cc2)CCC1=O` , recorded log10 of IC50 = -1.22

The compound `CS(=O)(=O)c1ccc(C2=C(c3ccc(F)c(F)c3)C(=O)CC2)cc1` , when measured on Prostaglandin G/H synthase 1 (Homo sapiens, UniProt P23219), yielded log10 of IC50 of 0.23

Measured log10 of IC50 (Prostaglandin G/H synthase 1 (Homo sapiens, UniProt P23219)), entry `CS(=O)(=O)c1ccc(C2=C(c3cc(Cl)ccn3)C(=O)CC2)cc1` : 1.43

----------
Give pIC50 for every item shown.
Please express pIC50 as -log10 of the molar concentration.

Form field pIC50 for item `CS(=O)(=O)c1ccc(C2=C(c3cccnc3)C(=O)CC2)cc1` on Prostaglandin G/H synthase 1 (Homo sapiens, UniProt P23219): 4.47

Lab note: compound `CS(=O)(=O)c1ccc(C2=C(c3cc(Cl)cc(Cl)c3)C(=O)CC2)cc1` tested on Prostaglandin G/H synthase 1 (Homo sapiens, UniProt P23219); recorded pIC50 was 5.04

Form field, pIC50 with Prostaglandin G/H synthase 1 (Homo sapiens, UniProt P23219), item `CS(=O)(=O)c1ccc(C2=C(c3ccc(F)c(Cl)c3)C(=O)CC2)cc1` : 6.52

Bench note, Prostaglandin G/H synthase 1 (Homo sapiens, UniProt P23219): entry `CS(=O)(=O)c1ccc(C2=C(Oc3cc(F)cc(F)c3)C(=O)CC2)cc1` , its pIC50 = 5.57

Tested on Prostaglandin G/H synthase 1 (Homo sapiens, UniProt P23219): `CS(=O)(=O)c1ccc(C2=C(c3cc(Br)ccn3)C(=O)CC2)cc1` . Observed pIC50: 4.74

Assay Prostaglandin G/H synthase 1 (Homo sapiens, UniProt P23219), sample `CS(=O)(=O)c1ccc(C2=C(c3cc4ccccc4s3)C(=O)CC2)cc1` , pIC50 read: 7.00

Bench note, Prostaglandin G/H synthase 1 (Homo sapiens, UniProt P23219): `CS(=O)(=O)c1ccc(C2=C(c3ccccc3)C(=O)CC2)cc1` , pIC50 reads 5.51

// assay Prostaglandin G/H synthase 1 (Homo sapiens, UniProt P23219), entry `CS(=O)(=O)c1ccc(C2=C(c3ccc(Cl)c(F)c3)C(=O)CC2)cc1` , pIC50 value = 6.15

----------
Molecular target: Prostaglandin G/H synthase 2 (Homo sapiens)
Sequence (P35354 whole entry): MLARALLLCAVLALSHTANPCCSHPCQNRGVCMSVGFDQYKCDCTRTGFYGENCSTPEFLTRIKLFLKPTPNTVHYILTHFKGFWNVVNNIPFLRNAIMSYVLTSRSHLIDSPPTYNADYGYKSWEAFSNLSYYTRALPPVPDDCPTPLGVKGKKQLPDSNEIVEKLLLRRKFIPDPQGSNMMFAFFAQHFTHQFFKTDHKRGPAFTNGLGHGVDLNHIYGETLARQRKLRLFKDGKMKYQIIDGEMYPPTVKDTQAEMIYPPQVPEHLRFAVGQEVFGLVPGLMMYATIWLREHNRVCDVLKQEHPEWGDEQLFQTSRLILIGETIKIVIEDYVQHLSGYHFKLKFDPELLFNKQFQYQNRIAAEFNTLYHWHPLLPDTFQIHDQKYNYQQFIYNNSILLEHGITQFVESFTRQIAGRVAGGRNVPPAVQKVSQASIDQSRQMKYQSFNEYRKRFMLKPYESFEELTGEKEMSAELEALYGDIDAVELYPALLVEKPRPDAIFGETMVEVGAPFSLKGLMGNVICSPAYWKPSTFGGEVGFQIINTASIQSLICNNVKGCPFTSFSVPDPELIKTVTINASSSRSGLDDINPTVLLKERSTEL
Type: cell-based, CHO
Description: In vitro potency against human Prostaglandin G/H synthase 2 in transfected CHO cells.
Please go through the items and note down their pIC50.
Kindly note that pIC50 refers to -log10 of the concentration in mol/L and answer with the value alone.

# pIC50 (compound: `CS(=O)(=O)c1ccc(C2=C(C#Cc3ccccc3)C(=O)CC2)cc1` ) is 8.22

GET /value?item= `CS(=O)(=O)c1ccc(C2=C(c3cccc(F)c3)C(=O)CC2)cc1` &field=pIC50 returns 7.85

Record `Cc1ccncc1C1=C(c2ccc(S(C)(=O)=O)cc2)CCC1=O` . Reported pIC50: 6.36

Summary for this compound, `CS(=O)(=O)c1ccc(C2=C(/C=C/c3ccc(F)cc3)C(=O)CC2)cc1` : pIC50 is 6.76

Lab book: pIC50 of `CS(=O)(=O)c1ccc(C2=C(c3cc4ccccc4s3)C(=O)CC2)cc1` noted as 7.85

Quick note, pIC50 for `CS(=O)(=O)c1ccc(C2=C(c3cc(Cl)cc(Cl)c3)C(=O)CC2)cc1` landed at 7.85

Please fill in: pIC50 reported for `CS(=O)(=O)c1ccc(C2=C(Oc3cc(F)cc(F)c3)C(=O)CC2)cc1` = 7.77

Given item `CS(=O)(=O)c1ccc(C2=C(c3ccc(F)c(F)c3)C(=O)CC2)cc1` , the value recorded as its pIC50 is 7.85

Per the records, this compound ( `CC(C)(C)C#CC1=C(c2ccc(S(C)(=O)=O)cc2)CCC1=O` ) has pIC50 equal to 6.82

Summary for this compound, `CS(=O)(=O)c1ccc(C2=C(c3cc(Cl)c(Cl)c(Cl)c3)C(=O)CC2)cc1` : pIC50 is 8.22

The reported value for `CS(=O)(=O)c1ccc(C2=C(c3cc(F)cc(F)c3)C(=O)CC2)cc1` in terms of pIC50 is 7.82

Recorded result, `CS(=O)(=O)c1ccc(C2=C(c3ccc(F)c(Cl)c3)C(=O)CC2)cc1` , pIC50: 8.05

The recorded pIC50 for `CS(=O)(=O)c1ccc(C2=C(c3cccnc3)C(=O)CC2)cc1` is 6.77

compound `CS(=O)(=O)c1ccc(C2=C(c3cc(Cl)ccn3)C(=O)CC2)cc1` , pIC50 observed: 6.72

Kindly note the recorded pIC50 for `CS(=O)(=O)c1ccc(C2=C(c3ccccn3)C(=O)CC2)cc1` , which is 5.82

Query `COc1ccncc1C1=C(c2ccc(S(C)(=O)=O)cc2)CCC1=O` yields pIC50 of 6.82

Reported pIC50 for `CS(=O)(=O)c1ccc(C2=C(c3cc(Br)ccn3)C(=O)CC2)cc1` was 6.20

# pIC50 of `CS(=O)(=O)c1ccc(C2=C(c3ccccc3)C(=O)CC2)cc1` = 7.96

// recorded pIC50 for `CS(=O)(=O)c1ccc(C2=C(c3ccc(Cl)c(F)c3)C(=O)CC2)cc1` : 7.82

Kindly note the recorded pIC50 for `CS(=O)(=O)c1ccc(C2=C(c3ccc(F)cc3)C(=O)CC2)cc1` , which is 7.72

pIC50 in this record for `CS(=O)(=O)c1ccc(C2=C(c3cncc(Br)c3)C(=O)CC2)cc1` : 6.52

----------
Molecular target: Prostaglandin G/H synthase 2 (Homo sapiens, UniProt P35354)
Sequence (P35354 whole entry): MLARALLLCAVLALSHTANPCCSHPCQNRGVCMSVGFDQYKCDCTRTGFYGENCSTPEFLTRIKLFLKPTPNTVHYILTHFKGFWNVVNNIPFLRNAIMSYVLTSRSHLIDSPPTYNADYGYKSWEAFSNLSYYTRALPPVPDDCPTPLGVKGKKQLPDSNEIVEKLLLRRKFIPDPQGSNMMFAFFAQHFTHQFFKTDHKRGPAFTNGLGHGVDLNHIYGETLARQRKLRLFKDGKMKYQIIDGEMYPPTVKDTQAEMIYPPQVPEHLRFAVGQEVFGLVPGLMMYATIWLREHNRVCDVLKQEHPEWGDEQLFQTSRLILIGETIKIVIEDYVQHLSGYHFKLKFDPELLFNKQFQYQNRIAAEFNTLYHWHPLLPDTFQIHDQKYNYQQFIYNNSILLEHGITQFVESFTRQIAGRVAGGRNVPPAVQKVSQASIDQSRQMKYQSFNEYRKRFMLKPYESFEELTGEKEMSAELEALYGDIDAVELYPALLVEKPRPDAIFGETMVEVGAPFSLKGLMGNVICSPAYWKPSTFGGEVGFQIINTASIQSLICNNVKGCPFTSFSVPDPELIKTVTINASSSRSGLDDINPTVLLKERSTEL
Assay type: tissue-based, Blood
Description: In vitro potency against human Prostaglandin G/H synthase 2 in the human whole blood assay.
measureName: pIC50
# reply with the number alone; pIC50 is -log10 of concentration in mol/L

Given item `Cc1ccncc1C1=C(c2ccc(S(C)(=O)=O)cc2)CCC1=O` , the value recorded as its pIC50 is 6.35

Sure, the documented pIC50 for `CS(=O)(=O)c1ccc(C2=C(Oc3cc(F)cc(F)c3)C(=O)CC2)cc1` is 5.96

response.value for `CS(=O)(=O)c1ccc(C2=C(c3cc(Cl)c(Cl)c(Cl)c3)C(=O)CC2)cc1` (field: pIC50) = 6.03

The compound `CS(=O)(=O)c1ccc(C2=C(c3cccnc3)C(=O)CC2)cc1` showed pIC50 equal to 6.19

Lab note: measured pIC50 of `CS(=O)(=O)c1ccc(C2=C(c3cc(Cl)cc(Cl)c3)C(=O)CC2)cc1` was 6.55
